Data origin: patent US20130195872A1

Attribute: IC50, IL-6 secretion by MEF cells, cytokine at 25 ng/ml
testedTarget: T1, cynomolgus IL-17F homodimer (cynomolgus, UniProt G7P4V0 31-163)
T1 sequence: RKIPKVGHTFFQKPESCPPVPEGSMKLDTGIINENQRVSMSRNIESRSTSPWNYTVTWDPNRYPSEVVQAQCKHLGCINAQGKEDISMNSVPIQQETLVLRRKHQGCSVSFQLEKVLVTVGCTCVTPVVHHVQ
experimentalProtocol: cell-based or functional assay
Please reply with the bare figure in nM and do not write the unit itself.

The cases that follow already have their IC50, IL-6 secretion by MEF cells, cytokine at 25 ng/ml on record.
30D12 antibody (antibody, IgG1, V domains shown, Fully human monoclonal antibody; also called 30D12 IgG1) VH: QVQLVQSGAEVKKPGASVKVSCKASGYTFTSYDINWVRQATGQGLEWMGWMNPDSGVIRYAQKFQGRVTMTRNTSISTAYMELNSLRSEDTAVYYCAREWFGELPSYYFYSGMDVWGQGTTVTVSS VL: EIVLTQSPATLSLSPGERATLSCRASQSVSSYLAWYQQKPGQAPRLLIYDASNRATGIPARFSGSGSGTDFTLTISSLEPEDFAVYYCQQRSNWPPTFGPGTKVDIK ... 130
15B7 antibody (antibody, IgG4, V domains shown) VH: QVQLVQSGAEVKKPGSSVKVSCKASGGTLSSYAFSWVRQAPGQGLEWMGGIIPFFGTAHYAQKFQGRVTITADESTNTAYMELSSLRSEDTAVYYCARDRDYYGSGSPFHFSGLDVWGQGTTVTVSS VL: EIVLTQSPDFQSVTPKEKVTITCRASQSIGSSLHWYQQKPDQSPKLLIKYASQSFSGVPSRFSGSGSGTDFTLTINSLEAEDAAAYYCHQSSSLPWTFGQGTKVEIK ... 15
1E4 antibody (antibody, IgG4, V domains shown) VH: QVQLVQSGAEVKKPGASVKVSCKASVYTFTTYGISWVRQAPGQGLEWMGWISVYNGNTNYGQNFQGRVSMTTDTSTSTAYMELRSLRSDDTAVYYCASFHGGHSGYHYGLDVWGQGTTVTVSS VL: EIVLTQSPATLSLSPGERATLSCRASQSVSSYLAWYQQKPGQAPRLLIYDASNRATGIPARFSGSGSGTDFTLTISSLEPEDFAVYYCQQRSNWPPYTFGQGTKLEIK ... 3.4
31A3 antibody (antibody, IgG1, V domains shown) VH: QVQLVQSGAEVKKPGASVKVSCKASVYTFTTYGISWVRQAPGQGLEWMGWITVYNGNTNYAQKFHGRVTMTTDTSTSTAYMELRSLRSDDTAVYYCASFHGGHSGYHYGLDVWGQGTTVTVSS VL: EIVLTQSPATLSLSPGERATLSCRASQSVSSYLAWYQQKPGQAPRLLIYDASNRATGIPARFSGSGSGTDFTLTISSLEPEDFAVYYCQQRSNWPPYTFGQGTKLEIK ... 4.2
29D8 antibody (antibody, IgG1, V domains shown) VH: QVQLVQSGAEVKKPGASVKVSCKAFAYTFSTYGISWVRQAPGQGLEWMGWISAYNSNTNYAQKVQGRITMTTDTSTRTAYMELRGLRSDDTAVYFCATFFGGHSGYHYGLDVWGQGTTVTVSS VL: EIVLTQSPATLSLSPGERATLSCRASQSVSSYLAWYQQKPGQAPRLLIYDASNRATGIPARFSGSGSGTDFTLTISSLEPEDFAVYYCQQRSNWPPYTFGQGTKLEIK ... 3.6

Please look at the following binder next.
Q) Please give the measured IC50, IL-6 secretion by MEF cells, cytokine at 25 ng/ml for this binder: 8B11 antibody (antibody, IgG3, V domains shown) VH: EVQLVESGGGLVHPGGSLRLSCAASGFTFSSFNMDWVRQAPGKGLEWVSSISTTSRIIYSADSVKGRFTISRDNARNSLYLQMNSLRDEDTAVYYCARVSYYGHGFDYWGQGTLVTVSS VL: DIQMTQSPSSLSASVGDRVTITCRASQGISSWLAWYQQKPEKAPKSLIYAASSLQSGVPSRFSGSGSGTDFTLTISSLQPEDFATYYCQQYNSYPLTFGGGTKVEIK
A) 50
